Data provenance: ChEMBL document CHEMBL3763099

tested on: LNCaP; assay: Cytotoxicity against human LNCAP cells assessed as inhibition of cell viability at 1 uM after 3 days by trypan blue dye exclusion assay; assay type: functional; settings: 72 h
We use 20% as the dividing line for inhibition at 1 µM: on or above the line is Condition met, below is Condition not met.

Given COc1cc(/C=C/C(=O)CC(=O)/C=C/c2ccc(O)c(OC)c2)ccc1O , state whether its inhibition at 1 µM is at least 20%.
Condition met

Is the recorded value of inhibition at 1 µM equal to or greater than 20% for this compound? CCn1ccnc1/C=C/C=C/C(=O)/C=C/c1nccn1CC
Condition met

Can Cn1cc(Br)c(/C=C/C=C/C(=O)/C=C/c2nn(C)cc2Br)n1 be said to have inhibition at 1 µM at or above 20%?
Condition met

hey, is inhibition at 1 µM for this one >= 20%? CCCCCCCn1ccnc1/C=C/C=C/C(=O)/C=C/c1nccn1CCCCCCC
Condition not met

Does the compound O=C(/C=C/C=C/c1nccs1)/C=C/c1nccs1 have recorded inhibition at 1 µM that is 20% or more?
Condition met

Confirm if inhibition at 1 µM reported for the compound O=C(/C=C/C=C/c1ccncc1F)/C=C/c1ccncc1F is 20% or above.
Condition met

Entry Cc1nc(C(F)(F)F)c(/C=C/C=C/C(=O)/C=C/c2sc(C)nc2C(F)(F)F)s1 : is its inhibition at 1 µM no less than 20%?
Condition met

State whether the measured inhibition at 1 µM reaches 20%, counting equality as reaching it, for O=C(/C=C/C=C/c1cccnc1)/C=C/c1cccnc1
Condition not met

Reported inhibition at 1 µM reaches at least 20% for CC(C)CCn1c(/C=C/C=C/C(=O)/C=C/c2nc3ccccc3n2CCC(C)C)nc2ccccc21 ?
Condition not met
